Value source: the supplement of paper PMC11208160

METHOD NOTES: recombinant UMI read abundance after kanamycin selection (control-corrected) (log10(CPM+1)); higher = more efficient recombination; extreme values may be limits of the assay; sequences stand for … in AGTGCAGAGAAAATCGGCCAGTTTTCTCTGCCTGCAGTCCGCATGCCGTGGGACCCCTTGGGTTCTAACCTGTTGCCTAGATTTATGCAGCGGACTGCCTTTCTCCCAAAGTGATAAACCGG…AGGTTGGTTTCACT; site = the 11-nt donor;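 note: IS621 bridge recombinase in Escherichia coli cells against a fixed T5 target plasmid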
Assign 1 (yes) to entries whose recombinant UMI read abundance (log10) meets or exceeds 0.01; assign 0 (no) to the rest.

Some entries whose results are on file:
[
  {
    "QUERY SEQUENCE": "GGCCACCCATGGACCGGTTTTCCCGGTAATCCGTATTTGTT (site GGCCCCCCTAA)",
    "DISCRETE LABEL": "1 (yes)"
  },
  {
    "QUERY SEQUENCE": "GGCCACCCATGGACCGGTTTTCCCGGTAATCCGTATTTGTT (site CGCCACCCTAA)",
    "DISCRETE LABEL": "1 (yes)"
  },
  {
    "QUERY SEQUENCE": "CCTAATGCATGGACCGGTTTTCCCGGTAATCCGTATTTGAT (site CCTAATGCTAT)",
    "DISCRETE LABEL": "0 (no)"
  },
  {
    "QUERY SEQUENCE": "CCCTTTACATGGACCGGTTTTCCCGGTAATCCGTATTTGCT (site CCGTTTACTAG)",
    "DISCRETE LABEL": "0 (no)"
  },
  {
    "QUERY SEQUENCE": "CGAGGTCCATGGACCGGTTTTCCCGGTAATCCGTATTTGGG (site CGAGGGCCTCC)",
    "DISCRETE LABEL": "1 (yes)"
  }
]

Incoming: Please check the record AGTGGAACATGGACCGGTTTTCCCGGTAATCCGTATTTGTT (site AGTGGAACTAA) and state if its recombinant UMI read abundance (log10) is at or above 0.01.
Outgoing: 1 (yes)
